// provenance: the supplement of paper PMC10567573

B1: SERPINB5 (parent)
chain: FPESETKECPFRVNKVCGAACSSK

# Variants of: B1
# protocolDetails: protein stability index of a GFP-peptide fusion (GPS, HEK-293T) (PSI 1-6); higher = more stable;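 also: lentivirally expressed fusions sorted by FACS into six bins by GFP to DsRed ratio, PSI derived from sequencing read proportions per bin multiplied by bin number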
# measurementConditions: c terminus: a fixed tail appended
metric: protein stability index

* E3Q | 1.75
* A19Q | 2.7
* C21P | 2.23
* A19G | 2.81
* E8W | 1.66
